The origin of these recorded values is BigSolDB 2.1.

Details: in n-butanol, 288.15 K
ASSAY READOUT: solubility (mole fraction)
Give a plain numeric answer without units written out.

Which value of solubility (mole fraction) has been reported for N#CCc1ccc([N+](=O)[O-])cc1 in the records?
0.0019

* * *

Settings: in acetic acid, 298.15 K
ASSAY READOUT: solubility (mole fraction)

Which value of solubility (mole fraction) has been reported for N#CCc1ccc([N+](=O)[O-])cc1 in the records?
0.0166

* * *

Details: in acetone, 328.15 K
ASSAY READOUT: solubility (mole fraction)
Give a plain numeric answer without units written out.

Which value of solubility (mole fraction) has been reported for N#CCc1ccc([N+](=O)[O-])cc1 in the records?
0.206

* * *

Details: in isobutanol, 303.15 K
ASSAY READOUT: solubility (mole fraction)

Which value of solubility (mole fraction) has been reported for N#CCc1ccc([N+](=O)[O-])cc1 in the records?
0.00299

* * *

Details: in acetone, 303.15 K
ASSAY READOUT: solubility (mole fraction)
Give a plain numeric answer without units written out.

Which value of solubility (mole fraction) has been reported for N#CCc1ccc([N+](=O)[O-])cc1 in the records?
0.111

* * *

Settings: in n-butanol, 323.15 K
ASSAY READOUT: solubility (mole fraction)
Give a plain numeric answer without units written out.

Which value of solubility (mole fraction) has been reported for N#CCc1ccc([N+](=O)[O-])cc1 in the records?
0.0102

* * *

Conditions: in ethyl acetate, 323.15 K
ASSAY READOUT: solubility (mole fraction)
Give a plain numeric answer without units written out.

Which value of solubility (mole fraction) has been reported for N#CCc1ccc([N+](=O)[O-])cc1 in the records?
0.228

* * *

Conditions: in water, 308.15 K
ASSAY READOUT: solubility (mole fraction)
Give a plain numeric answer without units written out.

Which value of solubility (mole fraction) has been reported for N#CCc1ccc([N+](=O)[O-])cc1 in the records?
5.2e-05

* * *

Conditions: in methanol, 303.15 K
ASSAY READOUT: solubility (mole fraction)
Give a plain numeric answer without units written out.

Which value of solubility (mole fraction) has been reported for N#CCc1ccc([N+](=O)[O-])cc1 in the records?
0.00695

* * *

Conditions: in methanol, 308.15 K
ASSAY READOUT: solubility (mole fraction)
Give a plain numeric answer without units written out.

Which value of solubility (mole fraction) has been reported for N#CCc1ccc([N+](=O)[O-])cc1 in the records?
0.00865

* * *

Settings: in cyclohexane, 293.15 K
ASSAY READOUT: solubility (mole fraction)
Give a plain numeric answer without units written out.

Which value of solubility (mole fraction) has been reported for N#CCc1ccc([N+](=O)[O-])cc1 in the records?
0.000134

* * *

Conditions: in toluene, 283.15 K
ASSAY READOUT: solubility (mole fraction)
Give a plain numeric answer without units written out.

Which value of solubility (mole fraction) has been reported for N#CCc1ccc([N+](=O)[O-])cc1 in the records?
0.00966

* * *

Settings: in ethyl acetate, 298.15 K
ASSAY READOUT: solubility (mole fraction)

Which value of solubility (mole fraction) has been reported for N#CCc1ccc([N+](=O)[O-])cc1 in the records?
0.159

* * *

Details: in isopropanol, 328.15 K
ASSAY READOUT: solubility (mole fraction)
Give a plain numeric answer without units written out.

Which value of solubility (mole fraction) has been reported for N#CCc1ccc([N+](=O)[O-])cc1 in the records?
0.011

* * *

Conditions: in ethylbenzene, 333.15 K
ASSAY READOUT: solubility (mole fraction)
Give a plain numeric answer without units written out.

Which value of solubility (mole fraction) has been reported for N#CCc1ccc([N+](=O)[O-])cc1 in the records?
0.0446

* * *

Conditions: in acetone, 318.15 K
ASSAY READOUT: solubility (mole fraction)
Give a plain numeric answer without units written out.

Which value of solubility (mole fraction) has been reported for N#CCc1ccc([N+](=O)[O-])cc1 in the records?
0.162

* * *

Details: in 2-butanone, 313.15 K
ASSAY READOUT: solubility (mole fraction)

Which value of solubility (mole fraction) has been reported for N#CCc1ccc([N+](=O)[O-])cc1 in the records?
0.126

* * *

Details: in acetonitrile, 308.15 K
ASSAY READOUT: solubility (mole fraction)

Which value of solubility (mole fraction) has been reported for N#CCc1ccc([N+](=O)[O-])cc1 in the records?
0.105

* * *

Details: in cyclohexane, 308.15 K
ASSAY READOUT: solubility (mole fraction)
Give a plain numeric answer without units written out.

Which value of solubility (mole fraction) has been reported for N#CCc1ccc([N+](=O)[O-])cc1 in the records?
0.000258

* * *

Conditions: in methanol, 333.15 K
ASSAY READOUT: solubility (mole fraction)
Give a plain numeric answer without units written out.

Which value of solubility (mole fraction) has been reported for N#CCc1ccc([N+](=O)[O-])cc1 in the records?
0.0262

* * *

Details: in acetonitrile, 288.15 K
ASSAY READOUT: solubility (mole fraction)
Give a plain numeric answer without units written out.

Which value of solubility (mole fraction) has been reported for N#CCc1ccc([N+](=O)[O-])cc1 in the records?
0.0519

* * *

Conditions: in acetone, 283.15 K
ASSAY READOUT: solubility (mole fraction)

Which value of solubility (mole fraction) has been reported for N#CCc1ccc([N+](=O)[O-])cc1 in the records?
0.0658

* * *

Conditions: in ethylbenzene, 303.15 K
ASSAY READOUT: solubility (mole fraction)
Give a plain numeric answer without units written out.

Which value of solubility (mole fraction) has been reported for N#CCc1ccc([N+](=O)[O-])cc1 in the records?
0.0135

* * *

Conditions: in water, 283.15 K
ASSAY READOUT: solubility (mole fraction)
Give a plain numeric answer without units written out.

Which value of solubility (mole fraction) has been reported for N#CCc1ccc([N+](=O)[O-])cc1 in the records?
1.94e-05

* * *

Details: in ethanol, 298.15 K
ASSAY READOUT: solubility (mole fraction)
Give a plain numeric answer without units written out.

Which value of solubility (mole fraction) has been reported for N#CCc1ccc([N+](=O)[O-])cc1 in the records?
0.0043

* * *

Conditions: in n-propanol, 293.15 K
ASSAY READOUT: solubility (mole fraction)
Give a plain numeric answer without units written out.

Which value of solubility (mole fraction) has been reported for N#CCc1ccc([N+](=O)[O-])cc1 in the records?
0.0026

* * *

Conditions: in water, 298.15 K
ASSAY READOUT: solubility (mole fraction)
Give a plain numeric answer without units written out.

Which value of solubility (mole fraction) has been reported for N#CCc1ccc([N+](=O)[O-])cc1 in the records?
3.55e-05

* * *

Conditions: in isopropanol, 293.15 K
ASSAY READOUT: solubility (mole fraction)
Give a plain numeric answer without units written out.

Which value of solubility (mole fraction) has been reported for N#CCc1ccc([N+](=O)[O-])cc1 in the records?
0.00193

* * *

Settings: in acetone, 323.15 K
ASSAY READOUT: solubility (mole fraction)
Give a plain numeric answer without units written out.

Which value of solubility (mole fraction) has been reported for N#CCc1ccc([N+](=O)[O-])cc1 in the records?
0.183

* * *

Details: in acetonitrile, 318.15 K
ASSAY READOUT: solubility (mole fraction)
Give a plain numeric answer without units written out.

Which value of solubility (mole fraction) has been reported for N#CCc1ccc([N+](=O)[O-])cc1 in the records?
0.145

* * *

Details: in ethanol, 333.15 K
ASSAY READOUT: solubility (mole fraction)
Give a plain numeric answer without units written out.

Which value of solubility (mole fraction) has been reported for N#CCc1ccc([N+](=O)[O-])cc1 in the records?
0.0178

* * *

Details: in acetic acid, 323.15 K
ASSAY READOUT: solubility (mole fraction)
Give a plain numeric answer without units written out.

Which value of solubility (mole fraction) has been reported for N#CCc1ccc([N+](=O)[O-])cc1 in the records?
0.0375

* * *

Settings: in ethanol, 313.15 K
ASSAY READOUT: solubility (mole fraction)
Give a plain numeric answer without units written out.

Which value of solubility (mole fraction) has been reported for N#CCc1ccc([N+](=O)[O-])cc1 in the records?
0.00788

* * *

Settings: in isobutanol, 278.15 K
ASSAY READOUT: solubility (mole fraction)
Give a plain numeric answer without units written out.

Which value of solubility (mole fraction) has been reported for N#CCc1ccc([N+](=O)[O-])cc1 in the records?
0.000842

* * *

Conditions: in isopropanol, 308.15 K
ASSAY READOUT: solubility (mole fraction)
Give a plain numeric answer without units written out.

Which value of solubility (mole fraction) has been reported for N#CCc1ccc([N+](=O)[O-])cc1 in the records?
0.00424

* * *

Settings: in isobutanol, 298.15 K
ASSAY READOUT: solubility (mole fraction)
Give a plain numeric answer without units written out.

Which value of solubility (mole fraction) has been reported for N#CCc1ccc([N+](=O)[O-])cc1 in the records?
0.00229
